For each record, write down the corresponding pIC50.
# test system: Renin (Homo sapiens, UniProt P00797)
# protocol summary: In vitro inhibition of purified human renin at PH 6.0
Scale: negative log10 of molar concentration, which is what pIC50 denotes.

Just so you know, measured pIC50 for "CC(C)C[C@H](NC(=O)[C@@H]1[C@@H](c2ccccc2)[C@H]1S(=O)(=O)C(C)C)C(=O)N[C@@H](CC1CCCCC1)[C@@H](O)[C@@H](O)CC(C)C" came out at 9.23

Just so you know, measured pIC50 for "CC(C)C[C@H](O)[C@H](O)[C@H](CC1CCCCC1)NC(=O)[C@H](Cn1ccnc1)NC(=O)[C@@H]1[C@@H](c2ccccc2)[C@H]1S(=O)(=O)C(C)C" came out at 8.85

Just so you know, measured pIC50 for "CC(C)C[C@H](O)[C@H](O)[C@H](CC1CCCCC1)NC(=O)[C@H](Cc1cscn1)NC(=O)[C@@H]1[C@@H](C2CCCCC2)[C@H]1S(=O)(=O)C(C)C" came out at 9.10

###

# test system: Renin (Homo sapiens, UniProt P00797)
# protocol summary: In vitro inhibition of human plasma renin at PH 7.4
quantity name: IC50 (nM)
Lab book: enter the figure in nM, no units written.

Just so you know, measured IC50 for "CC(C)C[C@H](O)[C@H](O)[C@H](CC1CCCCC1)NC(=O)[C@H](Cc1cscn1)NC(=O)[C@H](Cc1ccccc1)CS(=O)(=O)C(C)(C)C" came out at 0.87

Just so you know, measured IC50 for "CC(C)C[C@H](O)[C@H](O)[C@H](CC1CCCCC1)NC(=O)[C@H](Cn1ccnc1)NC(=O)[C@@H]1[C@@H](c2ccccc2)[C@H]1S(=O)(=O)C(C)C" came out at 5.8

Just so you know, measured IC50 for "CC(C)C[C@H](NC(=O)[C@H]1[C@H](c2ccccc2)[C@@H]1S(=O)(=O)C(C)C)C(=O)N[C@@H](CC1CCCCC1)[C@@H](O)[C@@H](O)CC(C)C" came out at 370

###

# test system: UniProt P00797
# Sequence (P00797 whole entry): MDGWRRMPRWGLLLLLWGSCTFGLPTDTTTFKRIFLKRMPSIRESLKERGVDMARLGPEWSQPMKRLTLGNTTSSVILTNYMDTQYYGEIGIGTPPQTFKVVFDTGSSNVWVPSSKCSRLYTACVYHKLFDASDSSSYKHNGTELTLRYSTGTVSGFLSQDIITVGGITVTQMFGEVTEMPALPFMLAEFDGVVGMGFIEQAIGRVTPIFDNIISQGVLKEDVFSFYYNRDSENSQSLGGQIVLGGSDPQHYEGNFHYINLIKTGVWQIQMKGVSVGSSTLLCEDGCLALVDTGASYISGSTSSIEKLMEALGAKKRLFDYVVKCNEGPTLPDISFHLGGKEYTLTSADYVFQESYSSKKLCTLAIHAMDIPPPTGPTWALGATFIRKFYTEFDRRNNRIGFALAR
# protocol summary: In vitro inhibition of purified human renin at PH 6.0
# label = criterion met if IC50 < 2 nM else criterion not met

Lab note: IC50 threshold 2 nM. Does this compound come in strictly under it? "C=CS(=O)(=O)[C@@H]1[C@@H](C(=O)N[C@@H](Cc2cscn2)C(=O)N[C@@H](CC2CCCCC2)[C@@H](O)[C@@H](O)CC(C)C)[C@@H]1c1ccccc1"
criterion not met

Lab note: IC50 threshold 2 nM. Does this compound come in strictly under it? "CC(C)C[C@H](O)[C@H](O)[C@H](CC1CCCCC1)NC(=O)[C@H](Cn1ccnc1)NC(=O)[C@H]1[C@H](c2ccccc2)[C@@H]1S(=O)(=O)C(C)C"
criterion not met

Lab note: IC50 threshold 2 nM. Does this compound come in strictly under it? "CC(C)C[C@H](O)[C@H](O)[C@H](CC1CCCCC1)NC(=O)[C@H](Cc1cscn1)NC(=O)[C@H]1[C@H](CC(=O)N2CCOCC2)[C@@H]1c1ccccc1"
criterion met

Lab note: IC50 threshold 2 nM. Does this compound come in strictly under it? "CCCC[C@H](NC(=O)[C@@H]1[C@@H](c2ccccc2)[C@H]1S(=O)(=O)C(C)C)C(=O)N[C@@H](CC1CCCCC1)[C@@H](O)[C@@H](O)CC(C)C"
criterion met

Lab note: IC50 threshold 2 nM. Does this compound come in strictly under it? "C=CS(=O)(=O)[C@H]1[C@H](C(=O)N[C@@H](Cc2cscn2)C(=O)N[C@@H](CC2CCCCC2)[C@@H](O)[C@@H](O)CC(C)C)[C@H]1c1ccccc1"
criterion met

Lab note: IC50 threshold 2 nM. Does this compound come in strictly under it? "CC(C)C[C@H](O)[C@H](O)[C@H](CC1CCCCC1)NC(=O)[C@H](Cc1cscn1)NC(=O)[C@H]1[C@H](c2ccccc2)[C@@H]1S(C)(=O)=O"
criterion not met

Lab note: IC50 threshold 2 nM. Does this compound come in strictly under it? "CC(C)C[C@H](O)[C@H](O)[C@H](CC1CCCCC1)NC(=O)[C@H](Cc1cscn1)NC(=O)[C@@H]1[C@@H](c2ccccc2)[C@H]1S(C)(=O)=O"
criterion met

Lab note: IC50 threshold 2 nM. Does this compound come in strictly under it? "CCCC[C@H](NC(=O)[C@H]1[C@H](c2ccccc2)[C@@H]1S(=O)(=O)C(C)C)C(=O)N[C@@H](CC1CCCCC1)[C@@H](O)[C@@H](O)CC(C)C"
criterion met

Lab note: IC50 threshold 2 nM. Does this compound come in strictly under it? "COCOCCS(=O)(=O)[C@@H]1[C@@H](C(=O)N[C@@H](Cc2cscn2)C(=O)N[C@@H](CC2CCCCC2)[C@@H](O)[C@@H](O)CC(C)C)[C@@H]1c1ccccc1"
criterion met

Lab note: IC50 threshold 2 nM. Does this compound come in strictly under it? "CC(C)C[C@H](NC(=O)[C@H]1[C@H](c2ccccc2)[C@@H]1S(=O)(=O)C(C)C)C(=O)N[C@@H](CC1CCCCC1)[C@@H](O)[C@@H](O)CC(C)C"
criterion not met

Lab note: IC50 threshold 2 nM. Does this compound come in strictly under it? "COCOCCS(=O)(=O)[C@H]1[C@H](C(=O)N[C@@H](Cc2cscn2)C(=O)N[C@@H](CC2CCCCC2)[C@@H](O)[C@@H](O)CC(C)C)[C@H]1c1ccccc1"
criterion met

Lab note: IC50 threshold 2 nM. Does this compound come in strictly under it? "CC(C)C[C@H](O)[C@H](O)[C@H](CC1CCCCC1)NC(=O)[C@H](Cc1cscn1)NC(=O)[C@H]1[C@H](C2CCCCC2)[C@@H]1S(=O)(=O)C(C)C"
criterion not met

Lab note: IC50 threshold 2 nM. Does this compound come in strictly under it? "CC(C)C[C@H](O)[C@H](O)[C@H](CC1CCCCC1)NC(=O)[C@H](Cc1cscn1)NC(=O)[C@@H]1[C@@H](c2ccccc2)[C@H]1S(=O)(=O)c1ccccc1"
criterion met

Lab note: IC50 threshold 2 nM. Does this compound come in strictly under it? "CC(C)C[C@H](O)[C@H](O)[C@H](CC1CCCCC1)NC(=O)[C@H](Cc1cscn1)NC(=O)[C@@H]1[C@@H](c2ccccc2)[C@H]1S(=O)(=O)C(C)C"
criterion met

Lab note: IC50 threshold 2 nM. Does this compound come in strictly under it? CO[C@@H](CC(C)C)[C@H](O)[C@H](CC1CCCCC1)NC(=O)[C@H](Cc1cscn1)NC(=O)C(Cc1ccccc1)CS(=O)(=O)c1ccccc1 (stereo partly specified)
criterion met

Lab note: IC50 threshold 2 nM. Does this compound come in strictly under it? "CC(C)C[C@H](O)[C@H](O)[C@H](CC1CCCCC1)NC(=O)[C@H](Cc1cscn1)NC(=O)[C@H]1[C@H](c2ccccc2)[C@@H]1S(=O)(=O)C(C)C"
criterion not met

###

# test system: Renin (Homo sapiens, UniProt P00797)
# Sequence (P00797 whole entry): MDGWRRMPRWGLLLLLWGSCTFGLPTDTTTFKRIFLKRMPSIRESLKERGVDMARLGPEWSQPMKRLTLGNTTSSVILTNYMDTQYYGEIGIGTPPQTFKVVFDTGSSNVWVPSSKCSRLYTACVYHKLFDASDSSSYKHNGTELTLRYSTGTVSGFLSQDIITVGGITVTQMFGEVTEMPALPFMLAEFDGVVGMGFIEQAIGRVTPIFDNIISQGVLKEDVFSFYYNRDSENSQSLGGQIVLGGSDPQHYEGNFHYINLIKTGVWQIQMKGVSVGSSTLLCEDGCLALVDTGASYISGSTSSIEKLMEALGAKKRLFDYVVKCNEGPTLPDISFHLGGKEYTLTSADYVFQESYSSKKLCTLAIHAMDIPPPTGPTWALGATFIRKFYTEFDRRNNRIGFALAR
# protocol summary: In vitro inhibition of human plasma renin at PH 7.4
For each record, write down the corresponding pIC50.
Scale: negative log10 of molar concentration, which is what pIC50 denotes.

Just so you know, measured pIC50 for "CC(C)C[C@H](O)[C@H](O)[C@H](CC1CCCCC1)NC(=O)[C@H](Cc1cscn1)NC(=O)[C@H](Cc1ccccc1)CS(=O)(=O)N1CCOCC1" came out at 8.85

Just so you know, measured pIC50 for "CC(C)C[C@H](O)[C@H](O)[C@H](CC1CCCCC1)NC(=O)[C@H](Cc1cscn1)NC(=O)[C@H]1[C@H](CC(=O)N2CCOCC2)[C@@H]1c1ccccc1" came out at 7.70

Just so you know, measured pIC50 for "C=CS(=O)(=O)[C@@H]1[C@@H](C(=O)N[C@@H](Cc2cscn2)C(=O)N[C@@H](CC2CCCCC2)[C@@H](O)[C@@H](O)CC(C)C)[C@@H]1c1ccccc1" came out at 7.57

Just so you know, measured pIC50 for "CC(C)C[C@H](O)[C@H](O)[C@H](CC1CCCCC1)NC(=O)[C@H](Cc1cscn1)NC(=O)[C@@H]1[C@@H](c2ccccc2)[C@H]1S(=O)(=O)c1ccccc1" came out at 7.54
